Assayed Target: human M5 receptors (hM5) (Homo sapiens)
Assay Summary: Cell-based functional calcium mobilization assay of mAChR M5 activity (inhibition of EC80 acetylcholine response) in CHO cells
Run Conditions: CHO cells stably expressing hM5; calcium flux (Fluo-4), EC80 acetylcholine addition
Attribute Measured: IC50

Cc1noc2ncc(S(=O)(=O)N3CC[C@@H](C(=O)Nc4ccc5scnc5c4)C3)cc12 ... > 10 µM
CC1(C)CN(S(=O)(=O)c2ccc3ncsc3c2)CCC1C(=O)Nc1ccc2scnc2c1 (stereo not shown) ... > 10 µM
CC1(C(=O)Nc2ccc3scnc3c2)CN(S(=O)(=O)c2ccc3c(c2)CCO3)C1 ... > 10 µM

Exercise: Can you look up IC50 on human M5 receptors (hM5) (Homo sapiens) for C[C@@H]1C[C@@H](C(=O)Nc2ccc3scnc3c2)CCN1S(=O)(=O)c1ccc2ncsc2c1 (racemic) ?
Solution: 0.58 µM

----------
Assayed Target: human M5 receptors (hM5) (Homo sapiens)
Construct: expressed in transfected cells
Sequence (P08912 1-532): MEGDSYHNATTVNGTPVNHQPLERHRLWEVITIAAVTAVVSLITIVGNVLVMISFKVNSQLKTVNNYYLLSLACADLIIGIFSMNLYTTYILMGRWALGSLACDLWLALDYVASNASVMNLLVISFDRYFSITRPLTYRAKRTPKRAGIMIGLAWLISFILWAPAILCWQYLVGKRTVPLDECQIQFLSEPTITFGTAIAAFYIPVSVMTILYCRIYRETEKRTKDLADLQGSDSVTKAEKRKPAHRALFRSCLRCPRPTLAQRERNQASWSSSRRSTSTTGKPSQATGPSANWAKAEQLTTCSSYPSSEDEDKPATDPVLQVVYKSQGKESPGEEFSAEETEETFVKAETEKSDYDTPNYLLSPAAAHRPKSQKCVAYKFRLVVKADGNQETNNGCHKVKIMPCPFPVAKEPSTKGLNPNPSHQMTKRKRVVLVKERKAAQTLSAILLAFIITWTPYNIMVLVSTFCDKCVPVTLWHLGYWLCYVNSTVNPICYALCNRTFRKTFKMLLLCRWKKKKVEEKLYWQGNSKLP
Assay Summary: Cell-based functional calcium mobilization assay of mAChR M5 activity (inhibition of EC80 acetylcholine response) in CHO cells
Run Conditions: CHO cells stably expressing hM5; minimum of EC80 acetylcholine response, normalized to maximum acetylcholine response
Attribute Measured: EC80 MIN (%)

C[C@H]1CN(S(=O)(=O)c2ccc(Cl)nc2)CC[C@@H]1C(=O)Nc1ccc2scnc2c1 (racemic) ... 4

[a] O=C(Nc1ccc2scnc2c1)C1CCN(S(=O)(=O)c2ccc3ncsc3c2)CC1
[b] CC1COc2ccc(S(=O)(=O)N3C[C@H](C(=O)Nc4ccc5scnc5c4)[C@@H](C)C3)cc21 (mixture of isomers)
[c] Cn1cnc(S(=O)(=O)N2CCC(C(=O)Nc3ccc4scnc4c3)CC2)c1
[d] COc1cccc(S(=O)(=O)N2CCC(C(=O)Nc3ccc4scnc4c3)CC2)c1
Exercise: With regard to EC80 MIN, arrange the entries in ascending order, please. Output the labels ranked as instructed.
Solution: b, a, d, c

----------
Assayed Target: human M5 receptors (hM5) (Homo sapiens, UniProt P08912)
Sequence (P08912 1-532): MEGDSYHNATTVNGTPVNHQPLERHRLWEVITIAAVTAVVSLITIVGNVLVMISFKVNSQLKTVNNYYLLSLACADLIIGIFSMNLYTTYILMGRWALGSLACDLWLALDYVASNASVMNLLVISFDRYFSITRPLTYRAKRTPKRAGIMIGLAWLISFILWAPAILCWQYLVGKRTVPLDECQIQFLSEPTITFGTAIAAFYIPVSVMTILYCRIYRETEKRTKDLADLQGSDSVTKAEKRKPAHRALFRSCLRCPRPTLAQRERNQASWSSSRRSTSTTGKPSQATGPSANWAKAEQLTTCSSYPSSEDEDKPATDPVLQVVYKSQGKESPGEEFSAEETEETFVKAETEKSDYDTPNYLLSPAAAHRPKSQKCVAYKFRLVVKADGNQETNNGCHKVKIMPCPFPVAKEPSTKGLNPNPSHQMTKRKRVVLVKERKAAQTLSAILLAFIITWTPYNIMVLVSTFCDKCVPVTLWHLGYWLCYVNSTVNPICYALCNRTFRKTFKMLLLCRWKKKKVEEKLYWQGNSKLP
Assay Summary: Cell-based functional calcium mobilization assay of mAChR M5 activity (inhibition of EC80 acetylcholine response) in CHO cells
Run Conditions: CHO cells stably expressing hM5; calcium flux (Fluo-4), EC80 acetylcholine addition
pIC50: −log10 of the molar value.
Attribute Measured: pIC50

C[C@@H]1CN(S(=O)(=O)c2ccc3c(c2)CCO3)C[C@@H]1C(=O)Nc1ccc2scnc2c1 ... 7.42
O=C(Nc1ccc2scnc2c1)C1CCN(S(=O)(=O)c2ccc3c(c2)CCO3)CC1 ... 7.14
O=C(Nc1ccc2scnc2c1)C1CCN(S(=O)(=O)c2ccc3ncsc3c2)CC1 ... 6.17
O=C(Nc1ccc2scnc2c1)C1CN(S(=O)(=O)c2ccc3c(c2)CCO3)C1 ... 5.75
C[C@@H]1C[C@@H](C(=O)Nc2ccc3scnc3c2)CCN1S(=O)(=O)c1ccc(Cl)nc1 (racemic) ... 6.56

[I] Cc1nn(C)cc1S(=O)(=O)N1CC[C@H](C(=O)Nc2ccc3scnc3c2)[C@@H](F)C1 (racemic)
[II] O=C(Nc1ccc2scnc2c1)[C@H]1CCN(S(=O)(=O)c2cccc3nsnc23)C[C@H]1F (racemic)
Exercise: Which gives the smaller pIC50 number: I or II ? Kindly state the label of the option you pick.
Solution: II
(II: 5.37, I: 6.51)

----------
Assayed Target: human M5 receptors (hM5) (Homo sapiens)
Construct: expressed in transfected cells
Sequence (P08912 1-532): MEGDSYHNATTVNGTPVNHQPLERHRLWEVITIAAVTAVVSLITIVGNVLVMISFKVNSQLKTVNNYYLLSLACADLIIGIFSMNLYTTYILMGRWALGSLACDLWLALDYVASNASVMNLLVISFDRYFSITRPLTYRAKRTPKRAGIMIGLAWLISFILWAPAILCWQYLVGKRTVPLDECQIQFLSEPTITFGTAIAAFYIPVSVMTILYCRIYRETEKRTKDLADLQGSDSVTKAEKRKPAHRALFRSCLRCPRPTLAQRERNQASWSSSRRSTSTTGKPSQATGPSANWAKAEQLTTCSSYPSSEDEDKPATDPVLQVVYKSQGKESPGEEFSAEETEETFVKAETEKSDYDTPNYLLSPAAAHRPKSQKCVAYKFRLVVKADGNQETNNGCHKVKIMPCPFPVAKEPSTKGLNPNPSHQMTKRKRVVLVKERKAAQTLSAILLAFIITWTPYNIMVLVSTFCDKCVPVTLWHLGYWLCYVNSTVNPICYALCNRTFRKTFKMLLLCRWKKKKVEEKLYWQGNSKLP
Assay Summary: Cell-based functional calcium mobilization assay of mAChR M5 activity (inhibition of EC80 acetylcholine response) in CHO cells
Run Conditions: CHO cells stably expressing hM5; minimum of EC80 acetylcholine response, normalized to maximum acetylcholine response
Attribute Measured: EC80 MIN (%)

Illustrative cases are given below, each with its answer.
[2H]C1([2H])Oc2ccc(S(=O)(=O)N3CC[C@@H](C(=O)Nc4ccc5scnc5c4)C3)cc2C1([2H])[2H] [Compound 140] ... 2
Cn1ncc(S(=O)(=O)N2CC[C@H](C(=O)Nc3ccc4scnc4c3)[C@@H](F)C2)c1Cl (racemic) [Compound 159] ... 2

[1] Cc1nn(C)cc1S(=O)(=O)N1CCC(C)(C(=O)Nc2ccc3scnc3c2)CC1 [Compound 112]
[2] O=C(Nc1ccc2scnc2c1)[C@H]1CCN(S(=O)(=O)c2cccc3nsnc23)C[C@@H]1F (racemic) [Compound 81]
Exercise: Kindly identify which of 1 and 2 has the larger recorded EC80 MIN value. Kindly state the label of the option you pick.
Solution: 1
(1: 58%, 2: 5%)

----------
Assayed Target: human M5 receptors (hM5) (Homo sapiens, UniProt P08912)
Construct: expressed in transfected cells
Sequence (P08912 1-532): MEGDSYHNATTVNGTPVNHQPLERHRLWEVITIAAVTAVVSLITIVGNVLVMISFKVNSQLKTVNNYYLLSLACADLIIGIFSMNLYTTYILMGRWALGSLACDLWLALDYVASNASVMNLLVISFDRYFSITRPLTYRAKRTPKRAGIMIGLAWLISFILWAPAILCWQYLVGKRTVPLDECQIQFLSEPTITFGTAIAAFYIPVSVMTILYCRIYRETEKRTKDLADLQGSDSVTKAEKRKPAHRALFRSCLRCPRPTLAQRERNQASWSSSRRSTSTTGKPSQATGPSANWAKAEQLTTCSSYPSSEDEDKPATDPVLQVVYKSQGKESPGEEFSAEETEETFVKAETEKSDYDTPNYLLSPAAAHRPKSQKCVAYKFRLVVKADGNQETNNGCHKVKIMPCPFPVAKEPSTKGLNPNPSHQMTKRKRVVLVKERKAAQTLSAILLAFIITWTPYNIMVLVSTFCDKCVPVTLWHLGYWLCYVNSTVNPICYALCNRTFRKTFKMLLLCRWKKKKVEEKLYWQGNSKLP
Assay Summary: Cell-based functional calcium mobilization assay of mAChR M5 activity (inhibition of EC80 acetylcholine response) in CHO cells
Run Conditions: CHO cells stably expressing hM5; minimum of EC80 acetylcholine response, normalized to maximum acetylcholine response
Attribute Measured: EC80 MIN (%)

O=C(Nc1ccc2scnc2c1)C1CCN(S(=O)(=O)c2cccnc2)C1 (racemic) ... 29
O=C(Nc1ccc2scnc2c1)[C@@H]1CCN(S(=O)(=O)c2ccc3ncccc3c2)C1 ... 3
O=C(Nc1ccc2scnc2c1)C1CCN(S(=O)(=O)c2ccccn2)CC1 ... 39
O=C(Nc1ccc2scnc2c1)C1CN(S(=O)(=O)c2ccc3c(c2)CCO3)C1 ... 2
Cn1cc(S(=O)(=O)N2CCC(C(=O)Nc3ccc4scnc4c3)CC2)c(C(F)(F)F)n1 ... 4

[P] O=C(Nc1ccc2scnc2c1)[C@H]1CCN(S(=O)(=O)c2ccc3ncsc3c2)C[C@@H]1F (racemic)
[Q] CC1(C(=O)Nc2ccc3scnc3c2)CCN(S(=O)(=O)c2ccc3c(c2)CCO3)CC1
[R] Cc1nc2cc(NC(=O)C3CCN(S(=O)(=O)c4ccc5c(c4)CCO5)CC3)ccc2s1
Exercise: With regard to EC80 MIN, arrange the entries in ascending order, please. Output the labels ranked as instructed.
Solution: P, Q, R
(P: 2%, Q: 3%, R: 17%)

[I] O=C(Nc1ccc2scnc2c1)C1CCN(S(=O)(=O)c2cc3c(cc2F)OCC3)CC1
[II] Cc1nn(C)cc1S(=O)(=O)N1CC[C@@H](C(=O)Nc2ccc3scnc3c2)C1
[III] Cn1cnc2cc(NC(=O)C3CCN(S(=O)(=O)c4ccc5c(c4)CCO5)CC3)ccc21
[IV] C[C@@H]1C[C@@H](C(=O)Nc2ccc3scnc3c2)CCN1S(=O)(=O)c1ccc2c(c1)CCO2 (racemic)
Exercise: With regard to EC80 MIN, arrange the entries in ascending order, please. Output the labels ranked as instructed.
Solution: I, IV, II, III
(I: 2%, IV: 3%, II: 6%, III: 53%)

[A] O=C(Nc1ccc2scnc2c1)C1CCN(S(=O)(=O)c2cccc(C(F)(F)F)c2)CC1
[B] O=C(Nc1ccc2scnc2c1)C1CCN(S(=O)(=O)c2ccc(Br)c3c2OCC3)CC1
Exercise: Which gives the smaller EC80 MIN number: A or B ? Kindly state the label of the option you pick.
Solution: B
(B: 34%, A: 51%)

[A] Cc1nn(C)cc1S(=O)(=O)N1CCC(C(=O)Nc2ccc3scnc3c2)C(C)(C)C1 (stereo not shown)
[B] Cc1noc(C)c1S(=O)(=O)N1CCC(C(=O)Nc2ccc3scnc3c2)CC1
[C] O=C(Nc1ccc2scnc2c1)[C@@H]1CCN(S(=O)(=O)c2ccc3c(c2Br)CCO3)C1
Exercise: With regard to EC80 MIN, arrange the entries in ascending order, please. Output the labels ranked as instructed.
Solution: C, B, A
